# Test system: Liver ApoB mRNA
# protocol: Liver ApoB mRNA knockdown by 1:57 SNALP containing cationic lipid and ApoB siRNA in mice (branched DNA QuantiGene assay)
# Format: in vivo
# conditionSet: 1:57 SNALP containing the cationic lipid with ApoB siRNA; IV 0.05 mg/kg; Balb/c mice; liver ApoB:GAPD mRNA; 48 h; n = 3
Exercise: state measured ApoB knockdown relative to PBS control (%) for each of the molecules provided.

CC(C)CCCC(C)CCCC(C)CCCC(C)CCC(CCC(C)CCCC(C)CCCC(C)CCCC(C)C)OC(=O)CCCN(C)C (stereo not shown)	−14%
CCCCC/C=C\C/C=C\CCCCCCCCC(CCCCCCCC/C=C\C/C=C\CCCCC)OCCCCN(C)C	−77%
CCCCC/C=C\C/C=C\CCCCCCCCCC(CCCCCCC/C=C\C/C=C\CCCCC)OC(=O)N(CC)CCN(C)C (stereo not shown)	−59%

Continue with the next molecule.
Q: Sample CCCCC/C=C\C/C=C\CCCCCCCCC(CCCCCCCC/C=C\C/C=C\CCCCC)OC(=O)CCCN(C)C — what was its ApoB knockdown relative to PBS control (%)?
Result: −81%

* * *

# Test system: Liver ApoB mRNA
# protocol: Liver ApoB mRNA knockdown by 1:57 SNALP containing cationic lipid and ApoB siRNA in mice (branched DNA QuantiGene assay)
# Type: in vivo
# conditionSet: 1:57 SNALP containing the cationic lipid with ApoB siRNA; IV 0.033 mg/kg; Balb/c mice; liver ApoB:GAPD mRNA; 48 h; n = 3
Sorting guide: entries reporting ApoB knockdown relative to PBS control (%) beneath -70% go in the true pile, the rest go in the false pile.

Solved cases below.
CCC/C=C\C/C=C\CCCCCCCCC(CCCCCCCC/C=C\C/C=C\CCCCC)OC(=O)N(C)CCCN(C)C (stereo not shown) [Compound 10, MC3MC]	false
CC/C=C\C/C=C\C/C=C\CCCCCCCCC(CCCCCCCC/C=C\C/C=C\C/C=C\CC)OC(=O)CCCN(C)C [Compound 4, LenMC3]	true

Q: Check if ApoB knockdown relative to PBS control (%) falls below -70% for CCCCCC/C=C/C=C\CCCCCCCCC(CCCCCCCC/C=C\C=C\CCCCCC)OCCCN(C)C [Compound 41] .
Result: false

Q: API: query returns whether the compound falls strictly under -70% in ApoB knockdown relative to PBS control (%). Query: CCCCC/C=C\C/C=C\CCCCCCCCCC(CCCCCCC/C=C\C/C=C\CCCCC)OC(=O)N(CCCCCC)CCCN(C)C (stereo not shown) [Compound 27]
Result: false

Q: Determine whether this compound shows ApoB knockdown relative to PBS control (%) lower than -70% (ties excluded): CCC1CC1CC1CC1CC1CC1CCCCCCCCC(CCCCCCCCC1CC1CC1CC1CC1CC1CC)OC(=O)CCCN(C)C (stereo not shown) [Compound 5]
Result: false

Q: Is it true that ApoB knockdown relative to PBS control (%) reported for CCCCC/C=C\C/C=C\CCCCCCCC(=O)C(CCCCCCC/C=C\C/C=C\CCCCC)OC(=O)CCCN(C)C (stereo not shown) [Compound 23] is less than -70%?
Result: false
